Molecular target: T1, wild type human CD47 (Acro Biosystems, cat. no. CD7-H5227) (human, UniProt Q08722 19-139)
T1 construct: Bought protein used as SPR analyte; also called Human CD47 wt; wild-type CD47
T1 sequence (Q08722 19-139 limits assumed): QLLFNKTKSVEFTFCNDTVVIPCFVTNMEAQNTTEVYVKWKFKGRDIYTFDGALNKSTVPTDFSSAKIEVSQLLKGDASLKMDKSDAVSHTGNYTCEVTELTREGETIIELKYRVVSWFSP
Assay: SPR, IgG captured, CD47 in flow; exp 4;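 further: biacore T200 SPR using IgG from transfected HEK293 supernatants against wild-type human CD47 or its C33G mutein, rates fitted to association and dissociation curves, KD estimated from them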
MEASURED_PROPERTY: kon (M⁻¹ s⁻¹)

[[record]]
binder = "108VH5.M26 / 108VL1.M5 (antibody, human IgG4 S228P, kappa, V domains shown, Full-length IgG4 (S228P), kappa; also called VH5.M26 VL1.M5) VH: EVQLVQSGAEVKKPGASVKVSCKASGYTFTHHWMHWVRQAPGQGLEWMGMIDASDVETRYAQKFQGRVTMTRDTSTSTVYMELSSLRSEDTAVYYCARLGRYYFDYWGQGTLVTVSS VL: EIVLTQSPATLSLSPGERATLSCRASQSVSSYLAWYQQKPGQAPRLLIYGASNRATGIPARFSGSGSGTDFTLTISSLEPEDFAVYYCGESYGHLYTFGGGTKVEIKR"
value_reported = 570000

[[record]]
binder = "108VH5.M24 / 108VL1.M5 (antibody, human IgG4 S228P, kappa, V domains shown, Full-length IgG4 (S228P), kappa; also called VH5.M24 VL1.M5) VH: EVQLVQSGAEVKKPGASVKVSCKASGYTFTHHWMHWVRQAPGQGLEWMGMIDASDLETRYAQKFQGRVTMTRDTSTSTVYMELSSLRSEDTAVYYCARLGRYYFDYWGQGTLVTVSS VL: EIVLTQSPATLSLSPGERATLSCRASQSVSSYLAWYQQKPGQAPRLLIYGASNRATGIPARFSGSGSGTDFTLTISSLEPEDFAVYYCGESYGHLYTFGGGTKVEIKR"
value_reported = 520000

[[record]]
binder = "108VH5.M22 / 108VL1.M5 (antibody, human IgG4 S228P, kappa, V domains shown, Full-length IgG4 (S228P), kappa; also called VH5.M22 VL1.M5) VH: EVQLVQSGAEVKKPGASVKVSCKASGYTFTHHWMHWVRQAPGQGLEWMGMIDASDIETRYAQKFQGRVTMTRDTSTSTVYMELSSLRSEDTAVYYCARLGRYYFDYWGQGTLVTVSS VL: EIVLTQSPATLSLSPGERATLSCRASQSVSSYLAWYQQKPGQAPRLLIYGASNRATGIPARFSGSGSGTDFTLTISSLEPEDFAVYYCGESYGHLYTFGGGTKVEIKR"
value_reported = 480000

